tested on: MDCK cells co-expressing GFP-K-RASG12V and mCherry-CAAX; experiment: Cytotoxicity in mislocalization screen (death of all cells in well); details: drug caused death of all cells in well at 30 μM
assay_readout: Cytotoxic at 30 μM

• CN1CCN(CCN(CC=C(c2ccccc2)c2ccccc2)[C@@H]2C[C@H]2c2ccccc2)CC1 [NY0590] = Yes
• CCOC(CCCN(CC=C(c1ccccc1)c1ccccc1)[C@H](C)c1ccc(OC)cc1)OCC [NY348] = No
• NC(=O)[C@H](NCC=C(c1ccccc1)c1ccccc1)c1ccccc1 [NY0569] = No
• COc1ccc([C@@H](C)N(CC=C(c2ccccc2)c2ccccc2)CCN2CCN(C(=O)C(C)F)CC2)cc1 (some centres unmarked) [NY0591] = No
• CCNC(=O)N(CC=C(c1ccccc1)c1ccccc1)[C@H](C)c1ccc(OC)cc1 [NY0504] = No
• O=S(=O)(c1ccc(F)cc1)N(CC=C(c1ccccc1)c1ccccc1)CCN1CCCC1 [PW277] = Yes
• COc1ccc([C@@H](C)N(CC=C(c2ccccc2)c2ccccc2)C(=O)CN2CCCC2)cc1 [PW124] = Yes
• C[C@H](c1ccc(F)cc1)N(CCN1CCCC1)C(=O)Nc1ccc(C(F)(F)F)cc1 [PW321] = No
• CCN1CCN(CCN(CC=C(c2ccccc2)c2ccccc2)[C@H](C)c2ccc(OC)cc2)CC1 [NY0589] = Yes
• COC(=O)c1cn(CCN(CC=C(c2ccccc2)c2ccccc2)[C@H](C)c2ccc(F)cc2)nn1 [PW307] = No
• Fc1ccc(CN(CC=C(c2ccccc2)c2ccccc2)CCN2CCCC2)cc1 [PW278] = Yes
• O=C(OCc1ccccc1)N(CC=C(c1ccccc1)c1ccccc1)CCN1CCCC1 [PW280] = Yes
• C(CN(CC=C(c1ccccc1)c1ccccc1)[C@@H]1C[C@H]1c1ccccc1)=C(c1ccccc1)c1ccccc1 [NY022601] = No
• C[C@@H](NCC(=O)N1c2ccccc2CCc2ccccc21)c1ccccc1 [NY0584] = No
• C[C@@H](CNCC=C(c1ccccc1)c1ccccc1)c1ccccc1 [NY022702] = No
• COc1ccc([C@@H](C)N(C)CC=C(c2ccccc2)c2ccccc2)cc1 [NY0218] = No
• COc1ccc([C@@H](C)N(CC=C(c2ccccc2)c2ccccc2)CCO)cc1 [NY0241] = No
• COC(=O)[C@H](NCC=C(c1ccccc1)c1ccccc1)c1ccccc1 [NY055102] = No
• COc1ccc([C@@H](C)N(CC=C(c2ccccc2)c2ccccc2)C(=O)CN2CCC(O)CC2)cc1 [PW126] = Yes
• COc1ccc([C@@H](C)N(CC=C(c2ccccc2)c2ccccc2)C(=O)Oc2ccccc2)cc1 [NY0225] = Yes
• C[C@@H](NCCN1c2ccccc2CCc2ccccc21)c1ccc(F)cc1 [NY0552] = No
• COc1ccc([C@@H](C)N(CC=C(c2ccccc2)c2ccccc2)CCN2CCCCC2)cc1 [NY329] = Yes
• O=C(Nc1ccc(F)cc1)N(CC=C(c1ccccc1)c1ccccc1)CCN1CCCC1 [PW279] = Yes
• COc1ccc([C@@H](C)N(CC=C(c2ccccc2)c2ccccc2)CCN2CCOCC2)cc1 [NY316] = No
• Nc1nccnc1C(=O)N(CC=C(c1ccccc1)c1ccccc1)CCN1CCCC1 [PW282] = No
• COC(=O)CN(CC=C(c1ccccc1)c1ccccc1)[C@H](C)c1ccc(OC)cc1 [NY0228] = No
• C#CCN1CCN(CCN(CC=C(c2ccccc2)c2ccccc2)[C@H](C)c2ccc(OC)cc2)CC1 [NY356] = No
• COc1ccc([C@@H](C)N(CC=C(c2ccccc2)c2ccccc2)C(=O)CN2CCN(C)CC2)cc1 [PW125] = Yes
• C=CC(=O)N(CC=C(c1ccccc1)c1ccccc1)[C@H](C)c1ccc(OC)cc1 [NY0235] = No
• COc1ccc([C@@H](C)N(CC=C(c2ccccc2)c2ccccc2)C(=O)C(C)F)cc1 (some centres unmarked) [NY314] = No
• C(CN1CCCc2ccccc21)=C(c1ccccc1)c1ccccc1 [NY0237] = No
• COc1ccc([C@@H](C)N(CC=C(c2ccccc2)c2ccccc2)CCN2CCCC2)cc1 [NY0331] = Yes
• CN1CCN(CCN(CC=C(c2ccccc2)c2ccccc2)C2(c3ccccc3)CC2)CC1 [NY0443] = Yes
• Cc1cc(C)n(CCN(CC=C(c2ccccc2)c2ccccc2)[C@H](C)c2ccc(F)cc2)n1 [PW299] = No

----------
test system: Hec1B (Mut) endometrial tumor cells; assay: CyQUANT proliferation assay; type: cell-based; conditions: Table 11, endometrial; read-out: IC50 (μM) Hec1B (Mut)
assay_readout: IC50

• COc1ccc([C@@H](C)N(CC=C(c2ccccc2)c2ccccc2)CC=C(c2ccccc2)c2ccccc2)cc1 [Compound 7, reference compound] = > 30 µM

----------
test system: MDCK cells co-expressing GFP-K-RASG12V and mCherry-CAAX; assay: Cytotoxicity in mislocalization screen (death of all cells in well); conditions: drug caused death of all cells in well at 30 μM
assay_readout: Cytotoxic at 30 μM

* COc1ccc([C@@H](C)N(CC=C(c2ccccc2)c2ccccc2)CC(=O)N2CCc3ccccc3C2)cc1 | No
* C=CCN(CC=C(c1ccccc1)c1ccccc1)[C@H](C)c1ccc(OC)cc1 | No
* COc1ccc([C@@H](C)N(CC=C(c2ccccc2)c2ccccc2)CCN2CCN(C(=O)Oc3ccccc3)CC2)cc1 | No
* C[C@@H](NCC(=O)N1c2ccccc2CCc2ccccc21)c1ccc(F)cc1 | No
* COc1ccc([C@@H](C)N(CC=C(c2ccccc2)c2ccccc2)CCN2CCN(C)CC2)cc1 | Yes
* COc1ccc([C@@H](C)N(CC=C(c2ccccc2)c2ccccc2)CCCN2CCCC2)cc1 | Yes
* COc1ccc([C@@H](C)N(CC=C(c2ccccc2)c2ccccc2)CC(=O)O)cc1 | No
* O=C(c1cc2ccccn2n1)N(CC=C(c1ccccc1)c1ccccc1)CCN1CCCC1 | No

----------
biological target: mGFP-K-RASG12V (Homo sapiens (Human), UniProt P01116, G12V); assay: K-Ras mislocalization assay (confocal microscopy, Manders coefficient); assay type: cell-based; details: MDCK cells, 48 h treatment; read-out: IC50 (μM), KRASG12V mislocalization
Mark satisfied for IC50 under 0.2 µM, not satisfied if at or over.

* C[C@@H](NCCC(c1ccccc1)c1ccccc1)c1ccccc1 [AVA08, R-Fendiline, reference compound] | not satisfied
* C(CN[C@@H]1C[C@H]1c1ccccc1)=C(c1ccccc1)c1ccccc1 | satisfied
* COc1ccc([C@@H](C)N(CC=C(c2ccccc2)c2ccccc2)CCCCO)cc1 | not satisfied
* C[C@H](c1ccc(F)cc1)N(CC=C(c1ccccc1)c1ccccc1)CCN1CCN(C)CC1 | not satisfied

----------
biological target: mGFP-K-RASG12V (Homo sapiens (Human), UniProt P01116, G12V); assay: K-Ras mislocalization assay (confocal microscopy, Manders coefficient); assay type: cell-based; conditions: MDCK cells, 48 h treatment; read-out: IC50 (μM), KRASG12V mislocalization
assay_readout: IC50 (µM)

• C[C@H](c1ccc(F)cc1)N(CCN1CCCC1)C(=O)c1cc(-c2ccccc2)ccn1 [PW324] = 2.9
• C[C@H](c1ccc(F)cc1)N(CC=C(c1ccccc1)c1ccccc1)CCn1cc(CCO)nn1 [PW303] = 4.13
• COc1ccc([C@@H](C)N(CC=C(c2ccccc2)c2ccccc2)CCN2CCC2)cc1 [NY0593] = 0.5
• COc1ccc([C@H](C)N(CC=C(c2ccccc2)c2ccccc2)CCN2CC2)cc1 [NY0436] = 14
• COc1ccc([C@@H](C)N(CC=C(c2ccccc2)c2ccccc2)CC(=O)N2CCN(C)CC2)cc1 [NY0232] = 1.1
• COc1ccc([C@@H](C)N(CC=C(c2ccccc2)c2ccccc2)S(C)(=O)=O)cc1 [NY0223] = 8.45
• COc1ccc([C@@H](C)N(CC=C(c2ccccc2)c2ccccc2)C(=O)C(C)F)cc1 (some centres unmarked) [NY314] = 1.69
• C(CN1CCC(c2ccccc2)CC1)=C(c1ccccc1)c1ccccc1 [NY306, 1-(3,3-diphenylallyl)-4-phenylpiperidine] = 3.95
• C[C@H](c1ccccc1)N(CC=C(c1ccccc1)c1ccccc1)CCN1CCN(C)CC1 [NY0513] = 0.6
• COc1ccc([C@@H](C)N(CC=C(c2ccccc2)c2ccccc2)CCN2CCNCC2)cc1 [NY347] = 1.3
• COc1ccc([C@@H](C)N(CC=C(c2ccccc2)c2ccccc2)CCN2CCCCC2)cc1 [NY329] = 0.6
• C#CCN(CC=C(c1ccccc1)c1ccccc1)[C@H](C)c1ccc(OC)cc1 [NY0234] = 21.9
• Fc1ccc(CN(CC=C(c2ccccc2)c2ccccc2)CCN2CCCC2)cc1 [PW278] = 8.85
• COc1ccc([C@@H](C)N(CC=C(c2ccccc2)c2ccccc2)CCF)cc1 [NY315] = 10.1
• COc1ccc([C@@H](C)N(CC=C(c2ccccc2)c2ccccc2)C(=O)NC(C)(C)C)cc1 [NY0428] = 0.29
• Cc1cc(C)n(CCN(CC=C(c2ccccc2)c2ccccc2)[C@H](C)c2ccc(F)cc2)n1 [PW299] = 0.654
• C[C@H](c1cccc(Cl)c1)N(CC=C(c1ccccc1)c1ccccc1)CCN1CCN(C)CC1 [NY0370b] = 11.2

Where do these numbers come from? They come from patent US12043602B2.
